B1: Serine/threonine-protein kinase A-Raf, residues 21 to 89; numbered along this chain, P10398 (parent)
chain: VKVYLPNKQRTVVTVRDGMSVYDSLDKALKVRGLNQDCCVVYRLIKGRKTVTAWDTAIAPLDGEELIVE

- Variants of: B1
- experimental-protocol: abundance fitness (aPCA) (normalised: wild type 0, dead -1); higher = more abundant; growth selection in yeast, the domain comes from the species named
- test-settings: Homo sapiens
The variants listed here are annotated with their abundance fitness.

Past entries and their recorded results:
| variant-identifier | abundance fitness |
| --- | --- |
| R32D | -0.487 |
| V1R | -0.487 |
| G63E | -0.486 |

Next up:
What abundance fitness value was documented for this variant, V21K ?
-0.493
